Assay: Caco-2 permeability
Type: in vitro ADME, human
Conditions: human, Caco-2
Readout kind: Papp (×10⁻⁶ cm/s)

a = O=c1cc(-c2ccc(O)cc2)oc2ncccc12
b = O=c1cc(-c2ccc(O)cc2)oc2ccncc12
c = CC(=O)Oc1ccc(-c2cc(=O)c3ccccc3o2)cc1 [Example 72, 4-(4-oxo-4H-chromen-2-yl)phenyl acetate]
d = Oc1ccc(-c2cc3ccccc3cn2)cc1
e = O=c1cc(-c2ccc(O)c(Cl)c2)oc2ncccc12
Arrange these 5 compounds in increasing order of Papp. Answer format: the labels, ordered as requested.
b, e, c, d, a
(b: 1.21 ×10⁻⁶ cm/s, e: 1.76 ×10⁻⁶ cm/s, c: 2.65 ×10⁻⁶ cm/s, d: 4.11 ×10⁻⁶ cm/s, a: 6.36 ×10⁻⁶ cm/s)
